# procedure-details: Induction of human IkappaBalpha stabilization in OCI-Ly3 cells assessed as ratio of green light emiting IkappaBalpha-fused luciferase expression to red light emiting native luciferase expression
pEC50: −log10 of the molar value.
Class t: pEC50 at least 5. Class f: pEC50 below 5.

Problem: Please check the record Cc1ccc2cccc(NS(=O)(=O)c3cc([N+](=O)[O-])ccc3C)c2n1 and state if its pEC50 is at or above 5.
Result: f

Problem: Has COc1cc(NS(=O)(=O)c2ccc(C)cc2)c2nc(C)ccc2c1 a recorded pEC50 greater than or equal to 5?
Result: f

Problem: Entry COc1cc(NS(=O)(=O)c2ccc(C)cc2N)c2nc(C)ccc2c1 : is its pEC50 no less than 5?
Result: t

Problem: Decide: pEC50 of O=S(=O)(Nc1cccc2cccnc12)c1ccc(Br)s1 >= 5?
Result: t
